Target: Integrin alpha-V/beta-3 (Homo sapiens, UniProt P05106+P06756)
Sequence (P05106 27-788 limits assumed): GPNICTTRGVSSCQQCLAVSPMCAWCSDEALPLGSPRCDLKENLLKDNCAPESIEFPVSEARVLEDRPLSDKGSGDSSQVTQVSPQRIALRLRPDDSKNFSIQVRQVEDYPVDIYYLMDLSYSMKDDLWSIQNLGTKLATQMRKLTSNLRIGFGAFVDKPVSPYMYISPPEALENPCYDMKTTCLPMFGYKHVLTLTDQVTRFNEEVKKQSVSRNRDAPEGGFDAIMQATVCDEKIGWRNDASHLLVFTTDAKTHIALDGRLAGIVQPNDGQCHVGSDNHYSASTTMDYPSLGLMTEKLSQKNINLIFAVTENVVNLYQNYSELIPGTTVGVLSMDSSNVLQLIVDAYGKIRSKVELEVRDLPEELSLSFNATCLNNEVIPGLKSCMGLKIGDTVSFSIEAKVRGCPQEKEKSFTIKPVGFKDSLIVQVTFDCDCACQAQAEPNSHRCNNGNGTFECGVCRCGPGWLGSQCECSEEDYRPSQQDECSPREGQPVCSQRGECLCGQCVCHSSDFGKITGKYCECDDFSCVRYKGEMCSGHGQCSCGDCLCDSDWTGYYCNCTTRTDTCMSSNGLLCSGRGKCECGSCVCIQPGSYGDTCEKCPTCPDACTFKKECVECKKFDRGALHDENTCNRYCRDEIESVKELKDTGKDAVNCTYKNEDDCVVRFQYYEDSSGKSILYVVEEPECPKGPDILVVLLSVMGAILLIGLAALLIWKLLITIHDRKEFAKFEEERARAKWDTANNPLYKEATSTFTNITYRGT
Sequence (P06756 31-889 limits assumed): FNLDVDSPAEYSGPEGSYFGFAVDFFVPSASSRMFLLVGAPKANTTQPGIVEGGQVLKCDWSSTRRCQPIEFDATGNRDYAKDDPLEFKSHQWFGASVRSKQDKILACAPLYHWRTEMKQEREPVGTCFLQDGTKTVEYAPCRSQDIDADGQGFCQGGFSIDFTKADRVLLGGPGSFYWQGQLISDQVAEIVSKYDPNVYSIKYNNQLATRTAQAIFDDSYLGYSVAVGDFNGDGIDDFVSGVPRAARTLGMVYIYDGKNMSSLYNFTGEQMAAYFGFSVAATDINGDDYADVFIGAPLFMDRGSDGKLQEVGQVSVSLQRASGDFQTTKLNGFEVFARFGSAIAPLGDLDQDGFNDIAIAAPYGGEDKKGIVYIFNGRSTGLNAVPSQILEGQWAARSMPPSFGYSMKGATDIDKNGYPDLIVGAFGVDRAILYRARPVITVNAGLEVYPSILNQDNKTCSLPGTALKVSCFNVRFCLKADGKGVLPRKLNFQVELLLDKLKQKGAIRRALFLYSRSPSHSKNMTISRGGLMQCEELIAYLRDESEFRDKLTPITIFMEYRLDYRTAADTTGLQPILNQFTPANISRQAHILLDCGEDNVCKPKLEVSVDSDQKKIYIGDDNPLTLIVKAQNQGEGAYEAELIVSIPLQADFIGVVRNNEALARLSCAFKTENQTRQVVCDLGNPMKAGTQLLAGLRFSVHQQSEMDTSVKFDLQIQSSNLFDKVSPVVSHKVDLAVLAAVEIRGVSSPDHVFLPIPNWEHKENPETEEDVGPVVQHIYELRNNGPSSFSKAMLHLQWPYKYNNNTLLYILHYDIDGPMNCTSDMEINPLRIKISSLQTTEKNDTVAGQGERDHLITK
Sequence (P06756 891-1048 limits assumed): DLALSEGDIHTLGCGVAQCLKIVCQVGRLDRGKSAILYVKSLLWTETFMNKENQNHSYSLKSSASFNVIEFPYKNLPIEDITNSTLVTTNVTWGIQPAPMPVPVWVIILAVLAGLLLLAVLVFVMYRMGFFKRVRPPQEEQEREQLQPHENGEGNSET
Assay: Inhibition of vitronectin receptor (alpha V beta 3), expressed on human 293 cells, binding to immobilized fibrinogen
pIC50: −log10 of the molar value.
observable: pIC50

Take a look at these entries with their results.
>  <molecule>
Cc1cc(C)c(S(=O)(=O)N[C@@H](CNC(=O)C2=NOC(CCNC(=O)Nc3ncc[nH]3)C2)C(=O)O)c(C)c1 (stereo partly specified)

>  <pIC50>
7.47

$$$$
>  <molecule>
O=C(NC[C@H](NS(=O)(=O)c1cccc2ccccc12)C(=O)O)C1=NOC(CCCCNc2ccccn2)C1 (stereo partly specified)

>  <pIC50>
6.80

$$$$
>  <molecule>
O=C(NC[C@H](NS(=O)(=O)c1ccccc1)C(=O)O)C1=NOC(CCCCNc2ncc[nH]2)C1 (stereo in doubt; 3cc)

>  <pIC50>
7.97

$$$$
>  <molecule>
O=C(NC[C@H](NS(=O)(=O)c1ccccc1)C(=O)O)C1=NOC(CCCCNc2ccccn2)C1 (stereo partly specified)

>  <pIC50>
7.09

$$$$
>  <molecule>
Cc1cc(C)c(S(=O)(=O)N[C@@H](CNC(=O)C2=NOC(CCCCNc3ncc[nH]3)C2)C(=O)O)c(C)c1 (stereo partly specified)

>  <pIC50>
7.82

$$$$

(A) CC(C)c1ccc(S(=O)(=O)N[C@@H](CNC(=O)C2=NOC(CCCCNc3ccccn3)C2)C(=O)O)cc1 (stereo partly specified)
(B) Cc1cc(-c2ccccc2)cc(C)c1S(=O)(=O)N[C@@H](CNC(=O)C1=NOC(CCCCNc2ccccn2)C1)C(=O)O (stereo partly specified)
Task: Dear colleague, could you let me know whether A or B has the lower recorded pIC50? Thanks. Please identify the chosen entry by its label.
Output: A
